Measured values drawn from patent US20240391954A1 for this set.

Assay: Pharmacokinetics: plasma and brain concentration after IP injection
Type: in vivo, mouse
Conditions: female, CD-1, mouse; mice, IP 15 mg/kg, 7 h, plasma, mean of 3
Positions of bridges follow the written chain, without caps; N, C: chain ends. Non-standard residues stand in square brackets, D forms with d. Residues, ends and D or L forms follow the SMILES beside them. Nle = CCCC[C@H](N)C(=O)O

Compound: CC(=O)N[C@@H](CCCN=C(N)N)C(=O)N[C@H]1CSSC[C@H](C(N)=O)NC(=O)[C@H](Cc2c[nH]c3ccccc23)NC(=O)C(CCCN=C(N)N)NC(=O)[C@@H](Cc2ccccc2)NC(=O)[C@H](Cc2cnc[nH]2)NC(=O)[C@@H](C)NC1=O (some centres unmarked) [CTX-1200, reference compound]
Readout units: ng/mL
level at 7 h: 62.9

Compound: CCCC[C@H](NC(=O)[C@H](CCCNC(=N)N)NC(C)=O)C(=O)N[C@H]1CSSC[C@@H](C(N)=O)NC(=O)[C@H](Cc2c[nH]c3ccccc23)NC(=O)[C@H](CCCNC(=N)N)NC(=O)[C@@H](Cc2ccccc2)NC(=O)[C@H](Cc2c[nH]cn2)NC1=O [CTX-1227, Arg-Nle-cyclo(Cys-His-D-Phe-Arg-Trp-Cys)] (Ac-R[Nle]CH[dF]RWC-NH2; disulfide 3-8 (inferred))
Readout units: ng/mL
level at 7 h: 7150
